Method Description: Analytical size exclusion chromatography (percent monomer)
Format: physicochemical
Assay Context: NEM-conjugated cysteine variants; SEC, Abs280 monomer region 5.5-6 minutes vs oligomer region 4-5.3 minutes
Measurement Kind: Percent monomer (%)
Express the result in % but write the number alone.

Sample 83v2His6-cys: P54AR4-83v2 parent with C-terminal cysteine (SEQ ID NOs: 217 and 255); NEM and vcMMAF conjugates (conjugate, His6 tag, C-terminal Cys; NEM or vcMMAF conjugate; EGFR binding FN3 domain, NEM and vcMMAF conjugates) MLPAPKNLVVSEVTEDSARLSWDDPWAFYESFLIQYQESEKVGEAIVLTVPGSERSYDLTGLKPGTEYTVSIYGVHNVYKDTNMRGLPLSAIFTTGGHHHHHHC ; Percent monomer observed: 97

// data source = patent US11702475B2
